Experiment: Hemolytic activity in human RBC at 512 times MIC measured after 8 hrs by absorbance based assay relative to control
Type: toxicity, cell-based, Erythrocyte
Settings: red blood cells (erythrocytes), read-out: Activity
outcomeMeasure: hemolysis at 8 h, 512 times MIC (%)
Give bare numbers, in %.

Param item = `OCCN(CCO)c1nccc(-n2cncn2)n1` ; retrieve measured hemolysis at 8 h, 512 times MIC.
1.5

====

Test system: Escherichia coli
Assay: Antibacterial activity against Escherichia coli ATCC 25922 assessed as bacterial growth inhibition incubated for 24 hrs by broth microdilution method
Type: functional
Binary call on MIC with cut-off 700 µM: strictly below means Condition met, and equality or higher means Condition not met.

Examples with answers:
is_below(MIC, 700 µM) for `Cc1ncc([N+](=O)[O-])n1-c1ccnc(N(CCO)CCO)n1` ?
Condition not met

Lookup `OCCN(CCO)c1nccc(-n2ccnc2)n1`
Condition not met

Okay, and `CN(CCO)c1nccc(-n2cncn2)n1` ?
Condition met

Likewise for `Brc1ccc2c3ccccc3n(-c3nccc(-n4cncn4)n3)c2c1` ?
Condition met

What about `OCCN(CCO)c1ccnc(-n2ccnc2-c2ccccc2)n1` ?
Condition not met

Same question, `CCN(CC)c1nccc(-n2cncn2)n1` this time
Condition met

New cases:
Lab log: compare recorded MIC with 700 µM; is it strictly lower for `CCCc1nccn1-c1nccc(N(CCO)CCO)n1` ?
Condition not met

Next up: `CC(C)c1nccn1-c1nccc(N(CCO)CCO)n1`
Condition not met

Okay, and `Cc1nccn1-c1nccc(N(CCO)CCO)n1` ?
Condition not met

====

I'd appreciate it if you could supply MIC values for the items below.
System: Staphylococcus aureus
Test: Antibacterial activity against Staphylococcus aureus ATCC 29213 assessed as bacterial growth inhibition incubated for 24 hrs by broth microdilution method
Assay type: functional
Numbers only, in µM.

Using the record for `CC(C)N(c1nccc(-n2cncn2)n1)C(C)C` , report its MIC.
1040

Next record, please: `O=C(c1ccccc1)N1CCN(c2nccc(-n3cncn3)n2)CC1`
764

Param item: `O=S(=O)(c1ccc(F)cc1)N1CCN(c2nccc(-n3cncn3)n2)CC1`
658

How about this compound: `CCCc1nccn1-c1ccnc(N(CCO)CCO)n1`
879

Try this compound too: `Brc1ccc2c3ccccc3n(-c3nccc(-n4cncn4)n3)c2c1`
656

Quick one: `CC(C)c1nccn1-c1nccc(N(CCO)CCO)n1`
879

Report MIC for every entry below.
1. CCN(CC)c1nccc(-n2cncn2)n1
2. O=C(CCl)N1CCN(c2nccc(-n3cncn3)n2)CC1
3. O=C1c2cccc3c(N4CCN(c5nccc(-n6cncn6)n5)CC4)ccc(c23)C(=O)N1CCO

587
104
9

Hey, quick one: what's MIC for each of these?
1. OCCN(CCO)c1nccc(-n2cnnn2)n1
2. CCCc1nccn1-c1nccc(N(CCO)CCO)n1
3. OCCN(CCO)c1nccc(-n2cnc3ccccc32)n1
4. Nc1ccc(S(=O)(=O)Nc2ncccn2)cc1
5. CCn1cc(C(=O)O)c(=O)c2cc(F)c(N3CCNCC3)cc21
6. CN(C)c1nccc(-n2cncn2)n1
7. Cc1ncc([N+](=O)[O-])n1-c1nccc(N(CCO)CCO)n1

1020
879
856
54
6
1350
831

Give its MIC value. Item: `CC(=O)Nc1ccc(S(=O)(=O)N2CCN(c3nccc(-n4cncn4)n3)CC2)cc1`
598

====

Test system: Staphylococcus aureus
Assay: Antibacterial activity against Staphylococcus aureus ATCC 29213 assessed as bacterial growth inhibition incubated for 24 hrs by broth microdilution method
Format: functional
Decision: MIC beneath 900 µM gives label 1; MIC meeting or exceeding 900 µM gives label 0.

Does this compound meet the criterion MIC < 900 µM? `Cc1cc2ncn(-c3ccnc(N(CCO)CCO)n3)c2cc1C`
label 1

And what about the compound `CCN(CCO)c1nccc(-n2cncn2)n1` ?
label 0

What do we get for `OCCN(CCO)c1nccc(-n2ccnc2)n1` ?
label 0

And then `OCCN(CCO)c1ccnc(-n2ccnc2-c2ccccc2)n1` , what is it?
label 1

Check `OCCN(CCO)c1nccc(-n2cncn2)n1` too.
label 0

Then what about the compound `OCCN(CCO)c1ccnc(-n2ccnc2)n1` ?
label 0

Further, for `O=C1c2cccc3c(N4CCN(c5nccc(-n6cncn6)n5)CC4)ccc(c23)C(=O)N1C(CO)CO` ?
label 1

Proceed to `Cc1nc2ccccc2n1-c1ccnc(N(CCO)CCO)n1`
label 1

Then this compound: `OCCN(CCO)c1nccc(-n2cnc3cc(Br)ccc32)n1`
label 1

Param item: `CN(CCO)c1nccc(-n2cncn2)n1`
label 0

Also, `Cc1nccn1-c1ccnc(N(CCO)CCO)n1` please.
label 0

Could you do the same for `Cc1cn(-c2nccc(N(CCO)CCO)n2)cn1` , please?
label 0

Lookup `O=c1ccc2c(CN3CCN(c4nccc(-n5cncn5)n4)CC3)cc(O)cc2o1`
label 1

Now consider `Cc1cn(-c2ccnc(N(CCO)CCO)n2)cn1` .
label 0

Please answer likewise for `CC(=O)N1CCN(c2nccc(-n3cncn3)n2)CC1`
label 0

Now consider `Clc1ccc2c3ccccc3n(-c3nccc(-n4cncn4)n3)c2c1` .
label 1

Now try `O=C(C(Cl)Cl)N1CCN(c2nccc(-n3cncn3)n2)CC1` .
label 1

====

Experiment: AUC (0 to t) in Kunming mouse at 10 mg/kg, po measured upto 24 hrs by LC-MS analysis
Assay type: ADME, organism-based
Set-up: time < 24 hrs, dose 10 mg/kg, route po
Details: in vivo
outcomeMeasure: AUC(0-t) at 24 h (ng·h/mL)
Answers are plain numbers, in ng·h/mL.

Any idea what AUC(0-t) at 24 h was measured for `OCCN(CCO)c1nccc(-n2cncn2)n1` ?
7870

====

Experiment: Tmax in Kunming mouse at 10 mg/kg, iv measured upto 24 hrs by LC-MS analysis
Format: ADME, organism-based
Settings: in vivo
outcomeMeasure: Tmax (min)
One number for each entry, in min.

I'd like to know its Tmax. The compound in question is `OCCN(CCO)c1nccc(-n2cncn2)n1`
1.98

====

Please respond with reported MIC for every item in the list.
System: Staphylococcus aureus
Assay: Antibacterial activity against Staphylococcus aureus ATCC 25923 assessed as bacterial growth inhibition incubated for 24 hrs by broth microdilution method
Type: functional
Answers are plain numbers, in µM.

Sample answers from the record:
Missing value: MIC, Staphylococcus aureus, entry `CO/N=C(/C(=O)N1CCN(c2nccc(-n3cncn3)n2)CC1)c1csc(N)n1` . Fill in?
587

Another compound to look at: `Brc1ccc2c3ccccc3n(-c3nccc(-n4cncn4)n3)c2c1`
1660

# repeat for `OCCN(CCO)c1ccnc(-n2ccnc2)n1`
1030

And for `O=c1ccc2c(CN3CCN(c4nccc(-n5cncn5)n4)CC3)cc(O)cc2o1` ?
316

Record: `Nc1ccc(S(=O)(=O)Nc2ncccn2)cc1`
129

Also need `O=C1c2cccc3c(N4CCN(c5nccc(-n6cncn6)n5)CC4)ccc(c23)C(=O)N1C(CO)CO` , thanks.
64

Entry `CCc1nccn1-c1nccc(N(CCO)CCO)n1` please
924

`OCCN(CCO)c1ccnc(-n2ccnc2-c2ccccc2)n1` , same question.
394

And `CCCc1nccn1-c1nccc(N(CCO)CCO)n1` ?
879

Try the compound `CC(=O)N1CCN(c2nccc(-n3cncn3)n2)CC1`
937

Continue with the next compound.
Form field - read-out: MIC; system: Staphylococcus aureus; submitted item: `OCCN(CCO)c1nccc(-n2cncn2)n1`
128

====

Test: AUC (0 to t) in Kunming mouse at 10 mg/kg, iv measured upto 24 hrs by LC-MS analysis
Type: ADME, organism-based
Design: time < 24 hrs, dose 10 mg/kg, route iv
Conditions: in vivo
outcomeMeasure: AUC(0-t) at 24 h (ng·h/mL)
One number for each entry, in ng·h/mL.

Would you mind telling me what AUC(0-t) at 24 h value was observed for `OCCN(CCO)c1nccc(-n2cncn2)n1` ?
2080

====

Tested on: Enterococcus faecalis
Experiment: Antibacterial activity against Enterococcus faecalis assessed as bacterial growth inhibition incubated for 24 hrs by broth microdilution method
Format: functional
For each entry below, report its MIC value.
Numbers only, in µM.

Report MIC for each item below.
1. Cc1ncc([N+](=O)[O-])n1-c1nccc(N(CCO)CCO)n1
2. OCCN(CCO)c1ccnc(-n2ccnc2-c2ccccc2)n1
3. CCN(CCO)c1nccc(-n2cncn2)n1
4. OCCN(CCO)c1ccnc(-n2ccnc2)n1
5. CC(=O)N1CCN(c2nccc(-n3cncn3)n2)CC1
6. Nc1ccc(S(=O)(=O)Nc2ncccn2)cc1
7. O=c1ccc2c(CN3CCN(c4nccc(-n5cncn5)n4)CC3)cc(O)cc2o1

831
787
1090
1030
937
64
316

====

Tested on: Staphylococcus aureus
Assay: Antibacterial activity against methicillin-resistant Staphylococcus aureus assessed as bacterial growth inhibition incubated for 24 hrs by broth microdilution method
Type: functional
outcomeMeasure: MIC (µM)
Give bare numbers, in µM.

Which MIC value is on record for `CN(C)c1nccc(-n2cncn2)n1` ?
1350

Input `Cc1cn(-c2ccnc(N(CCO)CCO)n2)c(C)n1`
924

Would you mind listing MIC for each of the following compounds?
1. Nc1ccc(S(=O)(=O)Nc2ncccn2)cc1
2. CCCc1nccn1-c1nccc(N(CCO)CCO)n1
3. CCc1nccn1-c1ccnc(N(CCO)CCO)n1
4. OCCN(CCO)c1nccc(-n2cnc3ccccc32)n1
5. O=S(=O)(c1ccc(F)cc1)N1CCN(c2nccc(-n3cncn3)n2)CC1
6. CCCc1nccn1-c1ccnc(N(CCO)CCO)n1

1. 256
2. 879
3. 924
4. 856
5. 658
6. 879

Okay, here is my list. What is MIC for each of these?
1. O=[N+]([O-])c1cn(-c2ccnc(N(CCO)CCO)n2)cn1
2. O=C(C(Cl)Cl)N1CCN(c2nccc(-n3cncn3)n2)CC1
3. OCCN(CCO)c1nccc(-n2cncn2)n1
4. Cc1nccn1-c1nccc(N(CCO)CCO)n1

1: 870; 2: 705; 3: 1020; 4: 973
